Origin of measurements: patent US20090035320A1

Property: kon; scope: individual binders
TGT: T1, PCI-Flag (human, UniProt P05154 26-406, limits assumed)
T1 construct: Full-length human PCI ORF with a C-terminal Flag tag, secreted by CHO cells and purified from the culture supernatant; also called Flag-tagged PCI
T1 chain: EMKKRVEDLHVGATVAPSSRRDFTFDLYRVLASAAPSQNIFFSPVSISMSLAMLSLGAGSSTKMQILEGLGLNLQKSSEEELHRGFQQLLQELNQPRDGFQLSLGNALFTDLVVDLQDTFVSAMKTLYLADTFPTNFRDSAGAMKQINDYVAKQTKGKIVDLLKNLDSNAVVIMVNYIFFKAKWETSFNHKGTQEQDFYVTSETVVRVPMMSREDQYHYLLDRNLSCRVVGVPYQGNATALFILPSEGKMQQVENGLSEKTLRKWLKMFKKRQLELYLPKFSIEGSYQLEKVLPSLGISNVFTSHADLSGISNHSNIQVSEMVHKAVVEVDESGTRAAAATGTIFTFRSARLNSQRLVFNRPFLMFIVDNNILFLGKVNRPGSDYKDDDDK
PROCEDURE TEXT: SPR (BIACORE 2000), PCI-Flag amine-coupled to CM5 chip, antibody injected
State just the number; it will be interpreted in M⁻¹ s⁻¹.

INSERT INTO assay_data (binder, result_value) VALUES
  ('PC19G8 (antibody, IgG1, V domains shown, also called clone #19G8; anti-PCI neutralizing antibody) VH: EVQLQQSGAELVKPGASVKLSCTASGFDIKDTFMHWVKQRPEQGLEWIGRIDYVNGNTKYDPKFQGKATITGDTSSNTAYLQLSSLTSEDTAVYYCARGGYDVREFAYWGQGTLVTVSA VL: QIVLTQSPAIMSASPGEKVTITCSATSSLIYMHWFQQKPGSSPELWIYSTSNLASGVPARFSGSGSGTSYSLTISRMEAEDAATYYCQQRSSYPFTFGSGTKLEIK', 168000),
  ('PC39C6 (antibody, IgG1, V domains shown, Mouse hybridoma monoclonal, IgG1, purified on Protein G; also called anti-PCI neutralizing antibody) VH: EVQLQQSGAELVRPGALVKLSCKASGFNIKDYYIHWVKQRPEQGLEWIGRIDLEKGNIIYDPKFQGKDNITADTSSNTAYLQLSSLTSEDTAVYYCARGGYDVPSFAYWGQGTLVTVSA VL: QIVLTQSPAIMSASPGEKVTITCSASSSVSYMHWFQQKPGTSPKLWIYSTSNLASGVPARFSGSGSGTSYSLTISRMEAEDAATYYCQQRSSYPFTFGSGTKLEIK', 88800);

From here, focus on the item given below.
Which kon reading was recorded for the binder PC23D8 (antibody, IgG2a, V domains shown, also called anti-PCI neutralizing antibody) VH: EVQLQQSGAELVKPGASVKLSCTASGFDIKDTFMHWVKQRPEQGLEWIGRIDYVNGNTKYDPKFQGKATITGDTSSNTAYLQLSSLTSEDTAVYYCARGGYDVREFAYWGQGTLVTVSA VL: QIVLTQSPAIMSASPGEKVTITCSATSSLIYMHWFQQKPGSSPELWIYSTSNLASGVPARFSGSGSGTSYSLTISRMEAEDAATYYCQQRSSYPFTFGSGTKLEIK ? 225000
